- System: SNU-C4 xenografted nude mice
- EXPERIMENT_DESCRIPTION: Biodistribution study in SNU-C4 xenografted nude mice after intravenous injection
- Assay type: in vivo, mouse
- CONDITION_PARAMETERS: intestine, 2 hr after intravenous injection
Lab note: anything with % ID/g Intestine below 0.4 % ID/g is marked T; values at 0.4 % ID/g or higher are marked F.

- COMPOUND: "NC(CN1CCN(CC(=O)[O-])CCNCCN(CC(=O)[O-])CC1)C(=O)[O-].[68Ga+3] (centres unmarked) [^68Ga-DO2A-ala]"
  SYSTEM: "SNU-C4 xenografted nude mice"
  CLASSIFICATION: "F"
- COMPOUND: "O=C([O-])CN1CCNCCN(CC(=O)[O-])CCN(CC(=O)[O-])CC1.[68Ga+3] [^68Ga-DO3A, reference compound]"
  SYSTEM: "SNU-C4 xenografted nude mice"
  CLASSIFICATION: "F"
- COMPOUND: "NC(CNC(=O)CN1CCN(CC(=O)[O-])CCN(CC(=O)[O-])CC1)C(=O)[O-].[68Ga+3] (centres unmarked) [^68Ga-NOTA-ala]"
  SYSTEM: "SNU-C4 xenografted nude mice"
  CLASSIFICATION: "T"
- COMPOUND: "O=C([O-])CN1CCNCCN(CC(=O)[O-])CCNCC1.[68Ga+3] [^68Ga-DO2A, reference compound]"
  SYSTEM: "SNU-C4 xenografted nude mice"
  CLASSIFICATION: "F"
- COMPOUND: "O=C([O-])CN1CCN(CC(=O)[O-])CCN(CC(=O)O)CCN(CC(=O)[O-])CC1.[68Ga+3] [^68Ga-DOTA, reference compound]"
  SYSTEM: "SNU-C4 xenografted nude mice"
  CLASSIFICATION: "T"
- COMPOUND: "N[C@@H](CN1CCN(CC(=O)[O-])CCN(CC(=O)[O-])CCN(CC(=O)[O-])CC1)C(=O)O.[68Ga+3] (stereo in doubt) [^68Ga-DO3A-ala]"
  SYSTEM: "SNU-C4 xenografted nude mice"
  CLASSIFICATION: "F"
- COMPOUND: "O=C([O-])CN1CCN(CC(=O)[O-])CCN(CC(=O)[O-])CC1.[68Ga+3] [^68Ga-NOTA, reference compound]"
  SYSTEM: "SNU-C4 xenografted nude mice"
  CLASSIFICATION: "F"
